Each item that follows carries a reported MIC Coagulase Negative Staphylococcus (GC 4551).
# System: Staphylococcus sp.
# Assay method text: in vitro antibacterial evaluation, MIC by broth dilution
# Type: cell-based
# Assay context: broth dilution, 18 hours at 35° C.

# Molecule, Result
data = [
    ("CC(C)CC(=O)OC1C(O)C(CO)OC(OC2C(CO)OC(Oc3ccc(CC4NC(=O)C(C(C)c5ccc(Cl)cc5)NC(=O)CNC(=O)C(CO)NC(=O)C(C(O)C5CNC(=N)N5C5OC(CO)C(O)C(O)C5O)NC(=O)C(C(O)C5CNC(=N)N5)NC4=O)cc3)C(O)C2O)C1O (centres unmarked) [Example 262b]", "2 µg/mL"),
]

Let us move to another entry and its MIC Coagulase Negative Staphylococcus (GC 4551).
Q. Give recorded MIC Coagulase Negative Staphylococcus (GC 4551) with Staphylococcus sp. for the following molecule: COc1ccc(COCC2OC(OC3C(CO)OC(Oc4ccc(CC5NC(=O)C(C(C)c6ccccc6)NC(=O)CNC(=O)C(CO)NC(=O)C(C(O)C6CNC(=N)N6C6OC(CO)C(O)C(O)C6O)NC(=O)C(C(O)C6CNC(=N)N6)NC5=O)cc4)C(O)C3O)C(O)C(O)C2O)cc1OCc1ccccc1 (centres unmarked)
A. 2 µg/mL

* * *

# Test system: Enterococcus sp.
# Assay method text: in vitro antibacterial evaluation, MIC by broth dilution
# Type: cell-based
# Assay context: broth dilution, 18 hours at 35° C.
Observation type: MIC Enterococcus faecalis (ATCC 29212) (µg/mL)
# value in µg/mL; strip the unit string

Q. Give recorded MIC Enterococcus faecalis (ATCC 29212) with Enterococcus sp. for the following compound: CC(c1ccccc1)C1NC(=O)CNC(=O)C(CO)NC(=O)C(C(O)C2CNC(=N)N2C2OC(CO)C(O)C(O)C2O)NC(=O)C(C(O)C2CNC(=N)N2)NC(=O)C(Cc2ccc(OC3OC(CO)C(OC4OC5COC6(CCCCC6)OC5C(O)C4O)C(O)C3O)cc2)NC1=O (centres unmarked)
A. 8

* * *

Each item that follows carries a reported MIC Enterococcus faecalis (GC 4553).
# Test system: Enterococcus sp.
# Assay method text: in vitro antibacterial evaluation, MIC by broth dilution
# Type: cell-based
# Assay context: broth dilution, 18 hours at 35° C.; strain GC 4553
# value in µg/mL; strip the unit string

# Compound, MIC Enterococcus faecalis (GC 4553) [µg/mL]
records = [
    ("N=C1NCC(C(O)C2NC(=O)C(Cc3ccc(OC4OC(CO)C(OC5OC6COC7(OC6C6OC8(OC56)C5CC6CC(C5)CC8C6)C5CC6CC(C5)CC7C6)C(O)C4O)cc3)NC(=O)C(CC3CCCCC3)NC(=O)CNC(=O)C(CO)NC(=O)C(C(O)C3CNC(=N)N3C3OC(CO)C(O)C(O)C3O)NC2=O)N1 (stereo not shown) [Example 106b]", 8),
    ("CC(C)CC(=O)OC1C(O)C(CO)OC(OC2C(CO)OC(Oc3ccc(CC4NC(=O)C(C(C)c5cccs5)NC(=O)CNC(=O)C(CO)NC(=O)C(C(O)C5CNC(=N)N5C5OC(CO)C(O)C(O)C5O)NC(=O)C(C(O)C5CNC(=N)N5)NC4=O)cc3)C(O)C2O)C1O (stereo not shown) [Example 265b]", 64),
    ("CC(c1ccccc1)C1NC(=O)CNC(=O)C(CO[Si](C)(C)C(C)(C)C)NC(=O)C(C(O)C2CNC(=N)N2C2OC3COC(C)(C)OC3C3OC(C)(C)OC32)NC(=O)C(C(O)C2CNC(=N)N2)NC(=O)C(Cc2ccc(O)cc2)NC1=O (stereo not shown)", 16),
]

Q. For CC(c1ccccc1)C1NC(=O)CNC(=O)C(CO)NC(=O)C(CC2CNC(=N)N2C2OC(CO)C(O)C(O)C2O)NC(=O)C(CC2CNC(=N)N2)NC(=O)C(Cc2ccc(OC3OC(CO)C(OC4OC(CO)C(O)C(O)C4OCc4ccc(OCc5ccccc5)cc4)C(O)C3O)cc2)NC1=O (stereo not shown) [Example 246c] , what is its reported MIC Enterococcus faecalis (GC 4553)?
A. 128

Q. For CC(C)=CCCC(C)CC1OCC2OC(OC3C(CO)OC(Oc4ccc(CC5NC(=O)C(C(C)c6ccccc6)NC(=O)CNC(=O)C(CO)NC(=O)C(C(O)C6CNC(=N)N6C6OC(CO)C(O)C(O)C6O)NC(=O)C(C(O)C6CNC(=N)N6)NC5=O)cc4)C(O)C3O)C(O)C(O)C2O1 (stereo not shown) , what is its reported MIC Enterococcus faecalis (GC 4553)?
A. 8

* * *

# System: Enterococcus sp.
# Assay method text: in vitro antibacterial evaluation, MIC by broth dilution
# Assay type: cell-based
# Assay context: broth dilution, inoculum 5×10^5 CFU/mL, 18 hours at 35° C.; strain GC 2242
Each item that follows carries a reported MIC Enterococcus faecalis (GC 2242).
# value in mg/L; strip the unit string

Worked examples, 8 compounds total:
# Compound, Subject of test, Unit abbreviation, MIC Enterococcus faecalis (GC 2242)
data = [
    ("CC(C)CC(=O)OC1C(O)C(OC2C(CO)OC(Oc3ccc(CC4NC(=O)C(C(C)c5ccccc5)NC(=O)CNC(=O)C(CO)NC(=O)C(C(O)C5CNC(=N)N5C5OC(CO)C(O)C(O)C5O)NC(=O)C(C(O)C5CNC(=N)N5)NC4=O)cc3)C(O)C2O)OC2COC3(OC21)C1CC2CC(C1)CC3C2 (centres unmarked)", "Enterococcus sp.", "mg/L", 4),
    ("CC(c1ccccc1)C1NC(=O)CNC(=O)C(CO)NC(=O)C(C(O)C2CNC(=N)N2C2OC(CO)C(O)C(O)C2O)NC(=O)C(C(O)C2CNC(=N)N2)NC(=O)C(Cc2ccc(OC3OC(CO)C(OC4OC5COC6(CCCCCCCCCCC6)OC5C(O)C4O)C(O)C3O)cc2)NC1=O (centres unmarked)", "Enterococcus sp.", "mg/L", 4),
    ("CC(c1ccccc1)C1NC(=O)CNC(=O)C(CO)NC(=O)C(C(O)C2CNC(=N)N2C2OC(CO)C(O)C(O)C2O)NC(=O)C(C(O)C2CNC(=N)N2)NC(=O)C(Cc2ccc(OC3OC(CO)C(OC4OC(CO)C(O)C5OC6(CCCCCCCCCCCC6)OC45)C(O)C3O)cc2)NC1=O (centres unmarked) [Example 210a]", "Enterococcus sp.", "mg/L", 8),
    ("Cc1ccc(COCC2OC(OC3C(CO)OC(Oc4ccc(CC5NC(=O)C(C(C)c6ccccc6)NC(=O)CNC(=O)C(CO)NC(=O)C(C(O)C6CNC(=N)N6C6OC(CO)C(O)C(O)C6O)NC(=O)C(C(O)C6CNC(=N)N6)NC5=O)cc4)C(O)C3O)C(O)C(O)C2O)cc1 (centres unmarked)", "Enterococcus sp.", "mg/L", 4),
    ("CCCOc1ccc(COCC2OC(OC3C(CO)OC(Oc4ccc(CC5NC(=O)C(C(C)c6ccccc6)NC(=O)CNC(=O)C(CO)NC(=O)C(C(O)C6CNC(=N)N6C6OC(CO)C(O)C(O)C6O)NC(=O)C(C(O)C6CNC(=N)N6)NC5=O)cc4)C(O)C3O)C(O)C(O)C2O)cc1 (centres unmarked)", "Enterococcus sp.", "mg/L", 4),
    ("CC(c1ccccc1)C1NC(=O)CNC(=O)C(CO)NC(=O)C(C(O)C2CNC(=N)N2C2OC(CO)C(O)C(O)C2O)NC(=O)C(C(O)C2CNC(=N)N2)NC(=O)C(Cc2ccc(OC3OC(CO)C(OC4OC(CO)C(OCC=Cc5ccc(N(C)C)cc5)C(O)C4O)C(O)C3O)cc2)NC1=O (centres unmarked) [Example 243a]", "Enterococcus sp.", "mg/L", 32),
    ("CC(c1ccccc1)C1NC(=O)CNC(=O)C(CO)NC(=O)C(C(O)C2CNC(=N)N2C2OC(CO)C(O)C(O)C2O)NC(=O)C(C(O)C2CNC(=N)N2)NC(=O)C(Cc2ccc(OC3OC(CO)C(OC4OC5COC(c6cccc(Oc7cccc(C(F)(F)F)c7)c6)OC5C(O)C4O)C(O)C3O)cc2)NC1=O (centres unmarked)", "Enterococcus sp.", "mg/L", 32),
    ("CC(c1ccccc1)C1NC(=O)CNC(=O)C(CO)NC(=O)C(C(O)C2CNC(=N)N2C2OC(CO)C(O)C(O)C2O)NC(=O)C(C(O)C2CNC(=N)N2)NC(=O)C(Cc2ccc(OC3OC(CO)C(OC4OC(COCC=Cc5ccc(N(C)C)cc5)C(O)C(O)C4O)C(O)C3O)cc2)NC1=O (centres unmarked)", "Enterococcus sp.", "mg/L", 64),
]

Let us move to another entry and its MIC Enterococcus faecalis (GC 2242).
Q. For CC(c1ccccc1)C1NC(=O)CNC(=O)C(CO)NC(=O)C(C(O)C2CNC(=N)N2C2OC(CO)C(O)C(O)C2O)NC(=O)C(C(O)C2CNC(=N)N2)NC(=O)C(Cc2ccc(OC3OC(CO)C(OC4OC(COCC=Cc5ccccc5)C(O)C(O)C4O)C(O)C3O)cc2)NC1=O (centres unmarked) , what is its reported MIC Enterococcus faecalis (GC 2242)?
A. 16
